Data credit: patent US20240209086A1

# tgt: canine CD3 on canine T cells (canine PBMC) (canine, UniProt P27597 22-202)
# Sequence (P27597 22-202 limits assumed, chain 1 of 3): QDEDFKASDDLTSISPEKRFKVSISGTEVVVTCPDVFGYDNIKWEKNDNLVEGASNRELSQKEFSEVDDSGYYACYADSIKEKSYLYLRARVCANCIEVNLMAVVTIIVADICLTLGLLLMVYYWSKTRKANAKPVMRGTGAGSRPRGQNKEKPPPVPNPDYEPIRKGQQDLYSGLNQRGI
# Sequence (chain, as listed by the source limits assumed, chain 2 of 3): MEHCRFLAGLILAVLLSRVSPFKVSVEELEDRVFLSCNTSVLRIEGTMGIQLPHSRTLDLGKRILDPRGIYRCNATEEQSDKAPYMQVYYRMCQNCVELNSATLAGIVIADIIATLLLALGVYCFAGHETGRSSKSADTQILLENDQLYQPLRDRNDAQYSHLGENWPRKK
# Sequence (chain, as listed by the source limits assumed, chain 3 of 3): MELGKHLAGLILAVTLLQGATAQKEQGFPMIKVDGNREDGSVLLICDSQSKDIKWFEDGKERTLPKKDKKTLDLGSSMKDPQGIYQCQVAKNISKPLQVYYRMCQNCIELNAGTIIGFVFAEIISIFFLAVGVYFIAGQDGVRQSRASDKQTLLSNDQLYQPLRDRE
# protocol text: cell-based or functional assay
measurement kind: Ki67 Proliferation, Day 9, PB
Just the number, please, no unit after it.

# binder, Ki67 Proliferation, Day 9, PB
rows = [
    ("PMX198 (monospecific anti-canine CD3, canine IgG-B effector function deficient Fc) (antibody, V domains shown) VH: EFTLQESGPGLVKPSQTLSLTCIVSGGSVTSSYYWNWIRQRPGRGLEWMGYWTGSTNYNPAFQGRISITPDTAKNQFSLQLSSMTTEDTAVYYCAREGGSSLQAFGNWGQGTLVTVSS VL: SYVLTQLPSKNVTLKQPAHITCGGDNIGRKSVHWYQQKLGQAPILIIYYDSSRPTGIPERFSGANSGNTATLTISGALAEDEADYYCQVWDSSAKASVFGGGTHLTVL", 0),
]

Now look at this one.
For record PMX194 (monospecific anti-canine CD3, canine IgG-B effector function deficient Fc) (antibody, V domains shown) VH: EVQLVESGGDLVKPGGSLRLSCVASGFTFSNYHMSWVRQAPGKGLQWVAYSNSGRMSTDYADAVKGRFTISRDNAKNTLYLQMNSLRPEDTAVYYCATVIYGLFDYWGQGTLVTVSS VL: DIVMTQTPLSLSVSPGEPASISCKASQSLLYSNGNTYLYWFRQKPGQSPQRLIYKVSKRDSGVPDRFSGSGSGTDFTLRIRRVEADDAGVYYCGQGTQDPYTFSQGTKLEIK the listed Ki67 Proliferation, Day 9, PB is 1.11
